The measured values listed here are drawn from patent US20200255516A1.

IC50 reference
# test_system: T1, Full-length human TIGIT on CHO cells overexpressing TIGIT (human, UniProt Q495A1 22-244)
# T1 construct: also called TIGIT-CHO cells; CHO cells overexpressing human TIGIT
# T1 sequence: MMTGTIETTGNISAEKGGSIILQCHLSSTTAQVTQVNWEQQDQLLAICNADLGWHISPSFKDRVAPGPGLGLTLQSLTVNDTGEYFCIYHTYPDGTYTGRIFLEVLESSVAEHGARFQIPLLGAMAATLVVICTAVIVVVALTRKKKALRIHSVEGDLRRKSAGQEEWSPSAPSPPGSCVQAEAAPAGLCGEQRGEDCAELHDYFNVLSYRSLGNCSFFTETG
# protocol_text: FACS blocking assay on TIGIT-CHO cells; competitor CF633-labeled CD155-Fc at 2 ug/ml

| binder | units_of_measure | IC50 |
| --- | --- | --- |
| h1709-10 (antibody, human IgG4 S228P, kappa, V domains shown, also called humanized TIGIT antibody h1709-10) VH: EVQLVQSGAEVKKPGASVKVSCKASGYTFTDYYMHWVRQAPGQGLEWMGLVYPYNDNTGYNRKFKGRVTMTVDTSTSTVYMELNSLRSEDTAVYYCARGGPSNWNYFDYWGQGTLVTVSS VL: DIQMTQSPSSLSASVGDRVTITCKASQNVVTAVAWYQQKPGKSPKLLIYSASNRYTGVPDRFSGSGSGTDFTLTISSLQPEDFATYFCQQYTLYPLTFGGGTKVEIKR | nM | 0.427 |
| h1707-02 (antibody, human IgG4 S228P, kappa, V domains shown, also called humanized TIGIT antibody h1707-02) VH: EVQLVESGGGLVQPGGSLRLSCAASGFTFSDYHMYWVRQAPGKGLEWVAYISKGGISTYYPDTVKGRFTISRDNAKNSLYLQMSRLRAEDTAVYYCARQSSYDFAMDYWGRGTLVTVSS VL: DIQMTQSPSFLSASVGDRVTITCKASQDVGTSVAWYQQKPGKAPKLLIYWASARHTGVPSRFSGSGSGTDFTLTISSLQPEDFATYYCQQYSSYPLTFGQGTKLEIKR | nM | 0.482 |
